Assay: LDH release cytotoxicity assay
Format: cell-based
Settings: human, U937 cells
Property measured: inhibition at 4 h, 12.5 µM (%)
Report the value in % with no unit label.

Example cases with answers are listed next.
Form field: reported inhibition at 4 h, 12.5 µM of Cc1nn(C)c(C)c1S(=O)(=O)NCCc1ccccc1
-2.9

# query: inhibition at 4 h, 12.5 µM of entry Cc1nn(C)c(C)c1S(=O)(=O)NCCc1c[nH]c2ccccc12
-0.9

---
Dear colleague, I am looking for the recorded inhibition at 4 h, 12.5 µM of the following compound: Cc1n[nH]c(C)c1S(=O)(=O)NCCc1c[nH]c2ccccc12
3.8

Fill blank: measured inhibition at 4 h, 12.5 µM of the compound Cc1n[nH]c(C)c1S(=O)(=O)NCCc1ccccc1 is ____.
-0.9

inhibition at 4 h, 12.5 µM for Cc1nn(C)c(C)c1S(=O)(=O)NCCc1ccc(Cl)cc1 ?
3.3

Would you mind telling me what inhibition at 4 h, 12.5 µM value was observed for CCCOc1ccc(CCNS(=O)(=O)c2c(C)n[nH]c2C)cc1OCCC ?
-2.2

What does the data say about its inhibition at 4 h, 12.5 µM? Entry: Cc1n[nH]c(C)c1S(=O)(=O)NCCc1cccc(Cl)c1
-2

###

Assay: LDH release cytotoxicity assay
Assay type: cell-based
Settings: human, U937 cells
Property measured: inhibition at 4 h, 12.5 µM (%)
Report only the number, with the unit % understood.

# example entries with known answers
Form field: reported inhibition at 4 h, 12.5 µM of Cc1nn(C)c(C)c1S(=O)(=O)NCCC1=CCCCC1
-1.3

Requested field: inhibition at 4 h, 12.5 µM. Item: COc1ccc(CCNS(=O)(=O)c2c(C)n[nH]c2C)cc1OC
-2.7

More entries:
Form field: reported inhibition at 4 h, 12.5 µM of Cc1nn(C)c(C)c1S(=O)(=O)N[C@H](C)c1cccc2ccccc12
0

Any idea what inhibition at 4 h, 12.5 µM was measured for Cc1n[nH]c(C)c1S(=O)(=O)N[C@H](C)c1cccc2ccccc12 ?
-2.4
